All figures here come from ChEMBL document CHEMBL1146259.

target_or_system: Transient receptor potential cation channel subfamily V member 1 (Homo sapiens, UniProt Q8NER1)
Sequence (Q8NER1 whole entry): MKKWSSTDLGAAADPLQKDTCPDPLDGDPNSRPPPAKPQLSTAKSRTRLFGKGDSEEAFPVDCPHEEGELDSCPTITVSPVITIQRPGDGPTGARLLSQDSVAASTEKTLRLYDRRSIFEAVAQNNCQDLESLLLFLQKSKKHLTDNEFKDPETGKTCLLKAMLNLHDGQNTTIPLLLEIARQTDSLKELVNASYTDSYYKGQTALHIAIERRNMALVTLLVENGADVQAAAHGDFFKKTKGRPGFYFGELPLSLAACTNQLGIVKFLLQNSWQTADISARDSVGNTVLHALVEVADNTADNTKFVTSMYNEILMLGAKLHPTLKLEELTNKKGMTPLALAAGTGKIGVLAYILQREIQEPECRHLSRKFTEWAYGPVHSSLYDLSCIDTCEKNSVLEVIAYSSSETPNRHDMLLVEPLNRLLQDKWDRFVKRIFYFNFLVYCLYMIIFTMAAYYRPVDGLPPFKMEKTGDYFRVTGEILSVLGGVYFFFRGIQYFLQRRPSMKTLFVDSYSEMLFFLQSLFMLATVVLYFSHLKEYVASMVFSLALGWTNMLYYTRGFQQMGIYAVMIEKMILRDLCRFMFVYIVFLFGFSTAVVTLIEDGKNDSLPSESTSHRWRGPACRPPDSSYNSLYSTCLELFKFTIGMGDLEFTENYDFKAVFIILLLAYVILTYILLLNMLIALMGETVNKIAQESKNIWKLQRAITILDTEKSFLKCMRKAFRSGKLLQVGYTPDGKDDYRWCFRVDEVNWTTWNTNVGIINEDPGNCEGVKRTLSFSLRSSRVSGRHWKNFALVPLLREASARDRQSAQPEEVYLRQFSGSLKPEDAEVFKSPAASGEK
assay_notes: Agonist activity at human recombinant TRPV1 expressed in human HEK293 cells
pEC50: −log10 of the molar value.
Outcome: true (1) for pEC50 of at least 8; false (0) for anything lower.

Check the entry `C=C(C)[C@]12C[C@@H](C)[C@@]3(OCc4ccccc4)[C@@H](C=C(COC(=O)c4ccccc4)C[C@]4(O)C(=O)C(C)=C[C@@H]34)[C@H]1OCO2` : does pEC50 equal or exceed 8?
false (0)

Query `C=C(C)[C@]12C[C@@H](C)[C@@]3(OCc4ccccc4)[C@@H](C=C(COC(=O)Cc4ccccc4)C[C@]4(O)C(=O)C(C)=C[C@@H]34)[C@H]1OCO2` next
true (1)

Proceed to `C=C(C)[C@]12C[C@@H](C)[C@@]34O[C@](Cc5ccccc5)(O[C@@H]1[C@@H]3C=C(COC(=O)Cc1ccc(O)c(OC)c1)C[C@]1(O)C(=O)C(C)=C[C@@H]41)O2`
true (1)

Now consider `C=C(C)[C@]12C[C@@H](C)[C@@]3(OCc4ccccc4)[C@@H](C=C(COC(=O)c4cc(I)c(O)c(OC)c4)C[C@]4(O)C(=O)C(C)=C[C@@H]34)[C@H]1OCO2` .
true (1)

Here is the next compound: `C=C(C)[C@]12C[C@@H](C)[C@@]3(OCc4ccccc4)[C@@H](C=C(COC(=O)/C=C/c4ccccc4)C[C@]4(O)C(=O)C(C)=C[C@@H]34)[C@H]1OCO2`
false (0)

Now consider `C=C(C)[C@]12C[C@@H](C)[C@@]3(OCc4ccccc4)[C@@H](C=C(COC(=O)CCc4ccc(O)c(OC)c4)C[C@]4(O)C(=O)C(C)=C[C@@H]34)[C@H]1OCO2` and answer again.
true (1)

Now consider `C=C(C)[C@]12C[C@@H](C)[C@@]3(OCc4ccccc4)[C@@H](C=C(COC(=O)CCc4ccccc4)C[C@]4(O)C(=O)C(C)=C[C@@H]34)[C@H]1OCO2` .
false (0)

Next compound: `C=C(C)[C@]12C[C@@H](C)[C@@]3(OCc4ccccc4)[C@@H](C=C(COC(=O)/C=C/c4ccc(O)c(OC)c4)C[C@]4(O)C(=O)C(C)=C[C@@H]34)[C@H]1OCO2`
true (1)
